Test system: NCI-H1650;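 note: growth inhibition of human NCI-H1650 cells measured by a cell viability assay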
Assay: cells
Type: functional, cell-based, Homo sapiens
Conditions: Homo sapiens, NCI-H1650
Description: SANGER: Inhibition of human NCI-H1650 cell growth in a cell viability assay.
pIC50: −log10 of the molar value.
PARAMETER: pIC50

Query :: Which pIC50 is reported with NCI-H1650 for this entry: CCC(=O)N1CCN(c2ccc(-n3c(=O)ccc4cnc5ccc(-c6cnc7ccccc7c6)cc5c43)cc2C(F)(F)F)CC1 [TORIN1] ?
Result :: < 5.92

Query :: Which pIC50 is reported with NCI-H1650 for this entry: C[C@]1(O)C[C@@H](c2nc(-c3ccc4ccc(-c5ccccc5)nc4c3)c3c(N)nccn32)C1 [LINSITINIB] ?
Result :: < 5.59

Query :: Which pIC50 is reported with NCI-H1650 for this entry: Cn1cc(C2=C(c3ccc(Cl)cc3Cl)C(=O)NC2=O)c2ccccc21 [SB-216763] ?
Result :: < 5.00

Others:
Query :: Which pIC50 is reported with NCI-H1650 for this entry: CCc1nc(N)nc(N)c1-c1ccc(Cl)cc1 [PYRIMETHAMINE] ?
Result :: < 4.70

Query :: Which pIC50 is reported with NCI-H1650 for this entry: COc1ccc(C2=N[C@@H](c3ccc(Cl)cc3)[C@@H](c3ccc(Cl)cc3)N2C(=O)N2CCNC(=O)C2)c(OC(C)C)c1 [NUTLIN-3] ?
Result :: 5.13

Query :: Which pIC50 is reported with NCI-H1650 for this entry: CC1=C2C[C@H]3[C@@H](CC=C4C[C@@H](O)CC[C@@]43C)[C@@H]2CC[C@]12O[C@@H]1C[C@H](C)CN[C@H]1[C@H]2C [CYCLOPAMINE] ?
Result :: < 4.80

Query :: Which pIC50 is reported with NCI-H1650 for this entry: CN(Cc1cnc2nc(N)nc(N)c2n1)c1ccc(C(=O)N[C@@H](CCC(=O)O)C(=O)O)cc1 [METHOTREXATE] ?
Result :: < 6.70

====

Tested on: 647-V;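 note: growth inhibition of 647-V cells, read out with a cell viability assay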
Experiment: cells
Assay type: functional, cell-based, Homo sapiens
Conditions: Homo sapiens, 647-V
Description: SANGER: Inhibition of human 647-V cell growth in a cell viability assay.
PARAMETER: IC50

Query :: For the compound shown here, `CCOc1nc(NC(=O)Cc2cc(OC)ccc2OC)cc(N)c1C#N` , give the reported IC50.
Result :: > 10 µM

====

Tested on: EW-1;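 note: growth inhibition of the human EW-1 cell line, read out by a cell viability assay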
Assay: cells
Assay type: functional, cell-based, Homo sapiens
Conditions: Homo sapiens, EW-1
Description: SANGER: Inhibition of human EW-1 cell growth in a cell viability assay.
Reported IC50 values for the following compounds.

Here is how some compounds turned out for IC50.
Query :: For the compound shown here, `CCc1nc(N)nc(N)c1-c1ccc(Cl)cc1` , give the reported IC50.
Result :: 1370 nM

Query :: For the compound shown here, `CC(=O)O[C@@H]1[C@@H](OC(C)=O)[C@@H](O)[C@H](Oc2c(-c3ccc(O)cc3)oc3cc(O)cc(O)c3c2=O)O[C@H]1C` , give the reported IC50.
Result :: > 10000 nM

Query :: For the compound shown here, C=C1C(=O)O[C@@H]2C3O[C@]3(C)CC/C=C(\C)CC[C@@H]12 (some centres not stated) , give the reported IC50.
Result :: > 5000 nM

Query :: For the compound shown here, `CN(c1ncccc1CNc1nc(Nc2ccc3c(c2)CC(=O)N3)ncc1C(F)(F)F)S(C)(=O)=O` , give the reported IC50.
Result :: > 2560 nM

Query :: For the compound shown here, `CC1=C2C[C@H]3[C@@H](CC=C4C[C@@H](O)CC[C@@]43C)[C@@H]2CC[C@]12O[C@@H]1C[C@H](C)CN[C@H]1[C@H]2C` , give the reported IC50.
Result :: > 16000 nM

Others:
Query :: For the compound shown here, `O=C1N=C(NCc2cccs2)S/C1=C\c1ccc2ncccc2c1` , give the reported IC50.
Result :: > 5000 nM

Query :: For the compound shown here, `CCC1=C[C@@H]2CN(C1)Cc1c([nH]c3ccccc13)[C@@](C(=O)OC)(c1cc3c(cc1OC)N(C)[C@H]1[C@@](O)(C(=O)OC)[C@H](OC(C)=O)[C@]4(CC)C=CCN5CC[C@]31[C@@H]54)C2` , give the reported IC50.
Result :: 3.93 nM
